Values compiled from patent US20200316083A1.

Bacterial count (Log10 CFU/ml) 4 hours values for the compounds below.
# Tested on: A. baumanni 13301 producing Carbapenem hydrolysing beta-lactamase enzymes
# EXPERIMENT_SUMMARY: Time kill study against A. baumanni 13301
# Assay type: cell-based
# SETTINGS: 4 hours; 4 mcg/ml alone
# Procedure: In general, the antibacterial activity of compositions according to invention was studied by performing time kill studies. In a typical time kill study, the freshly grown cultures were diluted to the required cell density (initial starting inoculum) in cation adjusted Muller Hinton broth medium (BD, USA). The antibacterial agents (either alone or in combination) at the required concentrations were added into the culture-containing medium. […]
Report as a plain number; the unit Log10 CFU/ml is understood.

{"COMPOUND": "O=C(NNC(=O)[C@@H]1CC[C@@H]2CN1C(=O)N2OS(=O)(=O)O)[C@@H]1CCCNC1 [Compound (C)]", "STUDY_SYSTEM": "A. baumanni 13301 producing Carbapenem hydrolysing beta-lactamase enzymes", "UNITS_TEXT": "Log10 CFU/ml", "VAL": 8.85}
{"COMPOUND": "O=C(NOC[C@@H]1CCCN1)[C@@H]1CC[C@@H]2CN1C(=O)N2OS(=O)(=O)O [Compound (D)]", "STUDY_SYSTEM": "A. baumanni 13301 producing Carbapenem hydrolysing beta-lactamase enzymes", "UNITS_TEXT": "Log10 CFU/ml", "VAL": 8.60}
{"COMPOUND": "NCCONC(=O)[C@@H]1CC[C@@H]2CN1C(=O)N2OS(=O)(=O)O [Compound (E)]", "STUDY_SYSTEM": "A. baumanni 13301 producing Carbapenem hydrolysing beta-lactamase enzymes", "UNITS_TEXT": "Log10 CFU/ml", "VAL": 8.74}
{"COMPOUND": "CC(C)(O/N=C(\\C(=O)N[C@@H]1C(=O)N2C(C(=O)[O-])=C(C[N+]3(CCNC(=O)c4ccc(O)c(O)c4Cl)CCCC3)CS[C@H]12)c1csc(N)n1)C(=O)O [Compound of Formula (I)]", "STUDY_SYSTEM": "A. baumanni 13301 producing Carbapenem hydrolysing beta-lactamase enzymes", "UNITS_TEXT": "Log10 CFU/ml", "VAL": 4.02}

Continue with the compound presented below.
Item under review: N#C[C@@H]1CC[C@@H]2CN1C(=O)N2OS(=O)(=O)O [Compound (B)] . Reported Bacterial count (Log10 CFU/ml) 4 hours?
8.74

* * *

# Test system: A. baumanni 13301 producing Carbapenem hydrolysing beta-lactamase enzymes
# EXPERIMENT_SUMMARY: Time kill study against A. baumanni 13301
# Type: cell-based
# SETTINGS: 4 mcg/ml alone
MEASURE_NAME: Change in Log10 CFU/ml over 0 hour count after 24 hours (Log10 CFU/ml)
Report as a plain number; the unit Log10 CFU/ml is understood.

Example entries begin here.
{"COMPOUND": "O=C(NNC(=O)[C@@H]1CC[C@@H]2CN1C(=O)N2OS(=O)(=O)O)[C@@H]1CCCNC1 [Compound (C)]", "VAL": 2.35}
{"COMPOUND": "N#C[C@@H]1CC[C@@H]2CN1C(=O)N2OS(=O)(=O)O [Compound (B)]", "VAL": 2.16}
{"COMPOUND": "NCCONC(=O)[C@@H]1CC[C@@H]2CN1C(=O)N2OS(=O)(=O)O [Compound (E)]", "VAL": 2.16}
{"COMPOUND": "O=C(NOC[C@@H]1CCCN1)[C@@H]1CC[C@@H]2CN1C(=O)N2OS(=O)(=O)O [Compound (D)]", "VAL": 2.07}

Continue with the compound presented below.
Item under review: CC(C)(O/N=C(\C(=O)N[C@@H]1C(=O)N2C(C(=O)[O-])=C(C[N+]3(CCNC(=O)c4ccc(O)c(O)c4Cl)CCCC3)CS[C@H]12)c1csc(N)n1)C(=O)O [Compound of Formula (I)] . Reported Change in Log10 CFU/ml over 0 hour count after 24 hours?
2.22
